Assignment: determine reported MRT inf for the given molecules.
test: Half-lives and pharmacokinetic parameters of polypeptides vs HM-1; settings: in vivo
Peptide text beside a SMILES is read from it. * marks the point of attachment. X53 = O=C1C=CC(=O)N1CCOCCOCCOCCOCCCCCCC(=O)*; X10 = O=C1C=CC(=O)N1CCOCCOCCOCCOCCCC(=O)*; X34 = O=C1C=CC(=O)N1CCOCCOCCOCCCCCC(=O)*
Your answer is read as h, so omit the unit and give the number.

# lookup: MRT inf of C[C@H](NC(=O)CNC(=O)[C@H](CCCNC(=N)N)NC(=O)CCCCCOCCOCCOCCN1C(=O)C=CC1=O)C(=O)N[C@@H](CC(=O)O)C(=O)N[C@@H](CCCNC(=N)N)C(=O)N[C@@H](C)C(=O)NCC(=O)NCC(=O)NCC(=O)NCC(=O)N[C@@H](CCCNC(=N)N)C(=O)NCC(=O)N[C@@H](CC(=O)O)C(=O)O [X67] (X34-RGADRAGGGGRGD-OH)
56.4

# lookup: MRT inf of C[C@H](NC(=O)CNC(=O)[C@H](CCCNC(=N)N)NC(=O)CCCCCCOCCOCCOCCOCCN1C(=O)C=CC1=O)C(=O)N[C@@H](CC(=O)O)C(=O)N[C@@H](CCCNC(=N)N)C(=O)N[C@@H](C)C(=O)NCC(=O)NCC(=O)NCC(=O)NCC(=O)N[C@@H](CCCNC(=N)N)C(=O)NCC(=O)N[C@@H](CC(=O)O)C(=O)O [X75] (X53-RGADRAGGGGRGD-OH)
47.8

# lookup: MRT inf of C[C@H](NC(=O)CNC(=O)[C@H](CCCNC(=N)N)NC(=O)CCCOCCOCCOCCOCCN1C(=O)C=CC1=O)C(=O)N[C@@H](CC(=O)O)C(=O)N[C@@H](CCCNC(=N)N)C(=O)N[C@@H](C)C(=O)NCC(=O)NCC(=O)NCC(=O)NCC(=O)N[C@@H](CCCNC(=N)N)C(=O)NCC(=O)N[C@@H](CC(=O)O)C(=O)O [X72] (X10-RGADRAGGGGRGD-OH)
60.5

###

Assignment: determine reported half-life for the given compounds.
assay: Half-lives and pharmacokinetic parameters of polypeptides vs HM-1; settings: in vivo; read-out: T1/2β (half-life) (converted)
Peptide text beside a SMILES is read from it. * marks the point of attachment. Hexanoyl(6-maleimido) = O=C1C=CC(=O)N1CCCCCC(=O)*; Propanoyl(3-maleimido) = O=C1C=CC(=O)N1CCC(=O)*; X38 = O=C1C=CC(=O)N1CCOCC(=O)*
Your answer is read as h, so omit the unit and give the number.

# lookup: half-life of C[C@H](NC(=O)CNC(=O)[C@H](CCCNC(=N)N)NC(=O)COCCN1C(=O)C=CC1=O)C(=O)N[C@@H](CC(=O)O)C(=O)N[C@@H](CCCNC(=N)N)C(=O)N[C@@H](C)C(=O)NCC(=O)NCC(=O)NCC(=O)NCC(=O)N[C@@H](CCCNC(=N)N)C(=O)NCC(=O)N[C@@H](CC(=O)O)C(=O)O [X49] (X38-RGADRAGGGGRGD-OH)
35.3

# lookup: half-life of C[C@H](NC(=O)CNC(=O)[C@H](CCCNC(=N)N)NC(=O)CCN1C(=O)C=CC1=O)C(=O)N[C@@H](CC(=O)O)C(=O)N[C@@H](CCCNC(=N)N)C(=O)N[C@@H](C)C(=O)N[C@@H](CCC(=O)O)C(=O)N[C@@H](C)C(=O)N[C@@H](C)C(=O)N[C@@H](C)C(=O)N[C@@H](CCCCN)C(=O)N[C@@H](CCCNC(=N)N)C(=O)NCC(=O)N[C@@H](CC(=O)O)C(=O)O [P11] ({Propanoyl(3-maleimido)}-RGADRAEAAAKRGD-OH)
39.2

# lookup: half-life of C[C@H](NC(=O)CNC(=O)[C@H](CCCNC(=N)N)NC(=O)CCCCCN1C(=O)C=CC1=O)C(=O)N[C@@H](CC(=O)O)C(=O)N[C@@H](CCCNC(=N)N)C(=O)N[C@@H](C)C(=O)NCC(=O)NCC(=O)NCC(=O)NCC(=O)N[C@@H](CCCNC(=N)N)C(=O)NCC(=O)N[C@@H](CC(=O)O)C(=O)O [X5] ({Hexanoyl(6-maleimido)}-RGADRAGGGGRGD-OH)
34.6

###

Assignment: determine reported AUC(0-inf) for the given compounds.
test: Half-lives and pharmacokinetic parameters of polypeptides vs HM-1; conditions: in vivo
Peptide text beside a SMILES is read from it. * marks the point of attachment. MaleimidoPEG4propanoyl = O=C1C=CC(=O)N1CCOCCOCCOCCOCCC(=O)*; X72 = O=C1C=CC(=O)N1c1ccccc1CCCCCCCCCCC(=O)*; X81 = O=C1C=CC(=O)N1c1ccccc1CCCC(=O)*; X51 = O=C1C=CC(=O)N1c1ccccc1CC(=O)*; X82 = O=C1C=CC(=O)N1CCCCCCCCC(=O)*; X12 = O=C1C=CC(=O)N1CCOCCCCC(=O)*
Give the number first and the unit second.

# lookup: AUC(0-inf) of C[C@H](NC(=O)CNC(=O)[C@H](CCCNC(=N)N)NC(=O)CCCc1ccccc1N1C(=O)C=CC1=O)C(=O)N[C@@H](CC(=O)O)C(=O)N[C@@H](CCCNC(=N)N)C(=O)N[C@@H](C)C(=O)NCC(=O)NCC(=O)NCC(=O)NCC(=O)N[C@@H](CCCNC(=N)N)C(=O)NCC(=O)N[C@@H](CC(=O)O)C(=O)O [X15] (X81-RGADRAGGGGRGD-OH)
34400 ng·h/mL

# lookup: AUC(0-inf) of C[C@H](NC(=O)CNC(=O)[C@H](CCCNC(=N)N)NC(=O)CCCCCCCCN1C(=O)C=CC1=O)C(=O)N[C@@H](CC(=O)O)C(=O)N[C@@H](CCCNC(=N)N)C(=O)N[C@@H](C)C(=O)NCC(=O)NCC(=O)NCC(=O)NCC(=O)N[C@@H](CCCNC(=N)N)C(=O)NCC(=O)N[C@@H](CC(=O)O)C(=O)O [X8] (X82-RGADRAGGGGRGD-OH)
27900 ng·h/mL

# lookup: AUC(0-inf) of C[C@H](NC(=O)CNC(=O)[C@H](CCCNC(=N)N)NC(=O)Cc1ccccc1N1C(=O)C=CC1=O)C(=O)N[C@@H](CC(=O)O)C(=O)N[C@@H](CCCNC(=N)N)C(=O)N[C@@H](C)C(=O)NCC(=O)NCC(=O)NCC(=O)NCC(=O)N[C@@H](CCCNC(=N)N)C(=O)NCC(=O)N[C@@H](CC(=O)O)C(=O)O [X13] (X51-RGADRAGGGGRGD-OH)
33600 ng·h/mL

# lookup: AUC(0-inf) of C[C@H](NC(=O)CNC(=O)[C@H](CCCNC(=N)N)NC(=O)CCCCOCCN1C(=O)C=CC1=O)C(=O)N[C@@H](CC(=O)O)C(=O)N[C@@H](CCCNC(=N)N)C(=O)N[C@@H](C)C(=O)NCC(=O)NCC(=O)NCC(=O)NCC(=O)N[C@@H](CCCNC(=N)N)C(=O)NCC(=O)N[C@@H](CC(=O)O)C(=O)O [X52] (X12-RGADRAGGGGRGD-OH)
27900 ng·h/mL

# lookup: AUC(0-inf) of C[C@H](NC(=O)CNC(=O)[C@H](CCCNC(=N)N)NC(=O)CCOCCOCCOCCOCCN1C(=O)C=CC1=O)C(=O)N[C@@H](CC(=O)O)C(=O)N[C@@H](CCCNC(=N)N)C(=O)N[C@@H](C)C(=O)NCC(=O)NCC(=O)NCC(=O)NCC(=O)N[C@@H](CCCNC(=N)N)C(=O)NCC(=O)N[C@@H](CC(=O)O)C(=O)O [X71] (MaleimidoPEG4propanoyl-RGADRAGGGGRGD-OH)
28300 ng·h/mL

# lookup: AUC(0-inf) of C[C@H](NC(=O)CNC(=O)[C@H](CCCNC(=N)N)NC(=O)CCCCCCCCCCc1ccccc1N1C(=O)C=CC1=O)C(=O)N[C@@H](CC(=O)O)C(=O)N[C@@H](CCCNC(=N)N)C(=O)N[C@@H](C)C(=O)NCC(=O)NCC(=O)NCC(=O)NCC(=O)N[C@@H](CCCNC(=N)N)C(=O)NCC(=O)N[C@@H](CC(=O)O)C(=O)O [X22] (X72-RGADRAGGGGRGD-OH)
28200 ng·h/mL
